- tgt: full-length beta-catenin (Axin site) (Homo sapiens, UniProt P35222)
- Construct: 15 nM full-length beta-catenin, 20 nM FITC labeled peptide in buffer
- Sequence (P35222 whole entry): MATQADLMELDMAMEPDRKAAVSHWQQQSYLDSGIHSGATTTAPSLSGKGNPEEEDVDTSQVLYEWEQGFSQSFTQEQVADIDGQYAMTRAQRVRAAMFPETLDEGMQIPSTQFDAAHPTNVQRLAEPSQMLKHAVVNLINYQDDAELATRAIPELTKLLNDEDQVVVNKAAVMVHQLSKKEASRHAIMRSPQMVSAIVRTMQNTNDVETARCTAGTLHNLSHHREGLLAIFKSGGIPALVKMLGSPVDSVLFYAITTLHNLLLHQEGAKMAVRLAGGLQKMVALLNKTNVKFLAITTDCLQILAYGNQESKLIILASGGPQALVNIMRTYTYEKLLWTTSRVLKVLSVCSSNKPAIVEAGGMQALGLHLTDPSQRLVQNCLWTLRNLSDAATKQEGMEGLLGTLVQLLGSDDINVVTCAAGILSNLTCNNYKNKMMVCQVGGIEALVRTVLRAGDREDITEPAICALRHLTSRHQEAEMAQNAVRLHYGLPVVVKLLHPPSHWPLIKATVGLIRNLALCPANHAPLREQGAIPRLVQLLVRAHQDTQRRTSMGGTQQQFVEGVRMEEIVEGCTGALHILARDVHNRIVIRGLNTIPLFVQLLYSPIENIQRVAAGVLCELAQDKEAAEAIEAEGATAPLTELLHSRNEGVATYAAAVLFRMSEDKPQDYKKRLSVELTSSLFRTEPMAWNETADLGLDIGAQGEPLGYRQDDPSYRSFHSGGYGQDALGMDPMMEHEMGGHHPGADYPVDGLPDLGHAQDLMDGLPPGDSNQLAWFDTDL
- assay name: Competition fluorescence polarization assay (Axin site probe)
- Assay type: binding
- setup conditions: competition fluorescence polarization, Table 2; read-out: in vitro FP EC50
Recorded EC50 values for a group of compounds are listed next.
parameter: EC50

compound: CC[C@H](C)[C@@H]1NC(=O)[C@](C)(NC(=O)[C@H](CCC(N)=O)NC(=O)[C@@H]2CCCN2C(C)=O)CCCCC=CCOC(=O)N2CC[C@](C(=O)N[C@@H](Cc3c[nH]cn3)C(=O)N[C@H](C(=O)N[C@@H](CCCNC(=N)N)C(=O)N[C@@H](CCCNC(=N)N)C(=O)N[C@H](C(=O)N[C@@H](Cc3c[nH]c4ccccc34)C(=O)N[C@@H](CCCNC(=N)N)C(N)=O)C(C)C)C(C)C)(C2)NC(=O)[C@H](CC(=O)O)NC(=O)[C@H](CC(C)C)NC1=O (single isomer, unassigned) [FP0767c, Ac-P-Q-R6-I-L-D-MC-H-V-R-R-V-W-R-NH2]
reported: 100 to 500 nM

compound: CC[C@H](C)[C@@H]1NC(=O)[C@H](Cc2c[nH]cn2)NC(=O)[C@H](C)NC(=O)[C@H](CC(=O)O)NC(=O)[C@H](CC(C)C)NC(=O)[C@H]([C@@H](C)CC)NC(=O)[C@](C)(NC(=O)[C@H](C)NC(C)=O)CCCN(C)C(=O)OCC=CCCC[C@@](C)(C(=O)N[C@@H](CCCNC(=N)N)C(=O)N[C@H](C(=O)N[C@@H](Cc2c[nH]c3ccccc23)C(N)=O)C(C)C)NC1=O (single isomer, unassigned) [FP0506c Isomer 2, Ac-A-MI-I-L-D-A-H-I-S5-R-V-W-NH2]
reported: < 100 nM

compound: CC[C@H](C)[C@@H]1NC(=O)[C@H](Cc2c[nH]cn2)NC(=O)[C@H](C)NC(=O)[C@H](CC(=O)O)NC(=O)[C@H](CC(C)C)NC(=O)[C@H]([C@@H](C)CC)NC(=O)[C@](C)(NC(=O)[C@H](C)NC(C)=O)CCCCC=CCOC(=O)N(C)CCC[C@@](C)(C(=O)N[C@@H](CCCNC(=N)N)C(=O)N[C@H](C(=O)N[C@@H](Cc2c[nH]c3ccccc23)C(N)=O)C(C)C)NC1=O (single isomer, unassigned) [FP0511c Isomer 1, Ac-A-R6-I-L-D-A-H-I-MH-R-V-W-NH2]
reported: < 100 nM

compound: CC[C@H](C)[C@@H]1NC(=O)[C@H](Cc2ccccn2)NC(=O)[C@H](C)NC(=O)[C@H](CC(=O)O)NC(=O)[C@H](CC(C)C)NC(=O)[C@H]([C@@H](C)CC)NC(=O)[C@](C)(NC(=O)[C@H](C)NC(C)=O)CCCCCCC=CCOC(=O)N2CC[C@@](C(=O)N[C@@H](Cc3ccccc3)C(=O)N[C@H](C(=O)N[C@@H](Cc3c[nH]c4ccccc34)C(N)=O)C(C)C)(C2)NC1=O (single isomer, unassigned) [FP0555c Isomer 1, Ac-A-R8-I-L-D-A-2pyr-I-MB-F-V-W-NH2]
reported: > 5000 nM
